Listing of recorded EC50 by entry.
- study target: CXCR4 (Homo sapiens, UniProt P61073)
- Sequence (P61073 whole entry): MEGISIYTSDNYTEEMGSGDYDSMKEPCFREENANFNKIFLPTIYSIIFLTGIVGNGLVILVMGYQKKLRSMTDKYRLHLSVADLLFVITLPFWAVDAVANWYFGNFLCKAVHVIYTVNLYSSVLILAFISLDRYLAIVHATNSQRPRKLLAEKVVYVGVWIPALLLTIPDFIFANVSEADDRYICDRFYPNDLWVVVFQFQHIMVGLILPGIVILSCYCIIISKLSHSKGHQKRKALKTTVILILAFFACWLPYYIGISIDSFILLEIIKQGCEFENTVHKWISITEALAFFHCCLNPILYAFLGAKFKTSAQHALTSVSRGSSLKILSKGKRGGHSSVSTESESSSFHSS
- assay overview: β-arrestin recruitment, 384-well, Tango CXCR4-bla U2OS cells, normalized to SDF-1α
- Type: cell-based
- Design: host or cells: U2OS
- experimental conditions: normalized to SDF-1; read-out: TANGO β-arrestin EC50

Reference set (5 entries):
compound | measured value
CCOC(=O)CNc1ccc(C2=Nn3c(nnc3-c3ccccc3OCC)SC2)cc1 | < 5 µM
CCOc1ccccc1-c1nnc2n1N=C(c1ccc(OC)c(OC)c1)CS2 | < 5 µM
CCc1ccc(C2=Nn3c(nnc3-c3ccccc3OC)SC2)cc1 | < 5 µM
CCOc1ccccc1-c1nnc2n1N=C(c1ccc(N3CCCCC3)cc1)CS2 | > 10 µM
CCOc1ccccc1-c1nnc2n1N=C(c1ccc(OC)cc1)CS2 | < 5 µM

Endpoint output: EC50 of `CCOc1ccccc1-c1nnc2n1N=C(c1ccc3c(c1)CCCN3)CS2` . Value? < 5 µM

# get_value(readout='EC50', item= `COc1cc(-c2nnc3n2N=C(c2ccccc2)CS3)cc(OC)c1OC` ) > 80 µM

Form field: reported EC50 of `COc1ccc(C2=Nn3c(nnc3-c3ccccc3OC)SC2)c(OC)c1` < 5 µM
